meta.source: ChEMBL document CHEMBL1141968

Below, each entry is listed alongside its reported pKi.
- target.or.test.system: Abscisic acid 8'-hydroxylase 3 (Arabidopsis thaliana, UniProt Q9FH76)
- Sequence (Q9FH76 whole entry): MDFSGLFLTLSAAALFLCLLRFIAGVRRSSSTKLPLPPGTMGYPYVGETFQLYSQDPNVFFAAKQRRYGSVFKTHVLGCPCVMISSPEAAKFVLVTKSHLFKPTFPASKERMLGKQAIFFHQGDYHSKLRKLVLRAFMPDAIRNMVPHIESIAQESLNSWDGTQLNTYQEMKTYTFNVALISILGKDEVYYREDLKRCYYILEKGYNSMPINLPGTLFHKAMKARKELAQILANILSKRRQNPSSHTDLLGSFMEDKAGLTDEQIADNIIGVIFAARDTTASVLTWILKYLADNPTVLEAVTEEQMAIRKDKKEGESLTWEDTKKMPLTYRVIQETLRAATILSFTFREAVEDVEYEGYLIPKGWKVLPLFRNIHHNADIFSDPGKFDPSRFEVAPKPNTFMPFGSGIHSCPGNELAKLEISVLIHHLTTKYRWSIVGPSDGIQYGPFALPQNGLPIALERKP
- assay.text: Inhibitory activity against recombinant CYP707A3 in Arabidopsis
pKi: −log10 of the molar value.
measure.name: pKi

- C[C@H]1CCC[C@](C)(C(F)F)[C@@]1(O)/C=C/C=C\C(=O)O (racemic): 6.39
- CC1=CC(=O)C[C@](C)(C(F)F)[C@@]1(O)/C=C/C(C)=C\C(=O)O: 6.77
- C[C@H]1CCCC(C)(C)[C@@]1(O)/C=C/C=C\C(=O)O (racemic): 6.40

---

- Tested on: Oryza sativa
- assay.text: Effect on seed elongation in Rice (Oryza sativa L.Cv.Nipponbare)
- Assay type: functional, organism-based
Below, each entry is listed alongside its reported IC50.
measure.name: IC50

* CC1=CC(=O)CC(C)(C)[C@@]1(O)/C=C/C(C)=C\C(=O)O [(+)-ABSCISIC ACID] | 2 µM
* C[C@H]1CCC[C@](C)(C(F)F)[C@@]1(O)/C=C/C=C\C(=O)O (racemic) | > 300 µM
* C[C@H]1CCCC(C)(C)[C@@]1(O)/C=C/C=C\C(=O)O (racemic) | > 300 µM
